# study-system: PBP7 (Escherichia coli)
# Sequence (P0AFI5 26-310): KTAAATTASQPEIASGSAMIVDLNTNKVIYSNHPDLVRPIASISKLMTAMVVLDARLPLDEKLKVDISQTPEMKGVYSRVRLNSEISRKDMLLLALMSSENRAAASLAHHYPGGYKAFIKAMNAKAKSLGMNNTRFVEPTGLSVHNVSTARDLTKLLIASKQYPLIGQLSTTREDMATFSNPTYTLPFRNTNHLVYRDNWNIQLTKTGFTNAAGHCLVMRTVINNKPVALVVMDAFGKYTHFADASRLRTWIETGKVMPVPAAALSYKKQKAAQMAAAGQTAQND
observed-property: IC50
Your reply should be a number followed by the unit it is expressed in.

Example entries and their recorded answers appear below.
{"columns": ["smiles-data", "IC50"],
 "data": [
  ["N[C@@H](C(=O)N[C@@H]1C(=O)N2C(C(=O)O)=C(Cl)CS[C@H]12)c1ccccc1", "86 µM"],
  ["CCN1CCN(C(=O)N[C@@H](C(=O)N[C@@H]2C(=O)N3[C@@H]2SC(C)(C)[C@@H]3C(=O)O)c2ccccc2)C(=O)C1=O", "2.3 µM"]
]}

Let us examine a further case.
GET /value?item= `CO/N=C(\C(=O)N[C@@H]1C(=O)N2C(C(=O)O)=C(CSc3nc(=O)c(=O)[nH]n3C)CS[C@H]12)c1csc(N)n1` &field=IC50 returns 9.5 µM

----------
# study-system: PBP3 (Escherichia coli)
observed-property: IC50 (µM)
Report only the number, with the unit µM understood.

Sample answers from the record:
{"columns": ["smiles-data", "endpoint-unit", "test-value"],
 "data": [
  ["CC1(C)S[C@@H]2[C@H](NC(=O)Cc3ccccc3)C(=O)N2[C@H]1C(=O)O", "µM", 15],
  ["N[C@@H](C(=O)N[C@@H]1C(=O)N2C(C(=O)O)=C(Cl)CS[C@H]12)c1ccccc1", "µM", 15]
]}

Moving on to the next molecule.
Field IC50 (PBP3 (Escherichia coli)), entry `CO/N=C(\C(=O)N[C@@H]1C(=O)N2C(C(=O)O)=C(COC(N)=O)CS[C@H]12)c1ccco1` : 0.02

----------
# study-system: PBP1b (Escherichia coli)
# Sequence (P02919 whole entry): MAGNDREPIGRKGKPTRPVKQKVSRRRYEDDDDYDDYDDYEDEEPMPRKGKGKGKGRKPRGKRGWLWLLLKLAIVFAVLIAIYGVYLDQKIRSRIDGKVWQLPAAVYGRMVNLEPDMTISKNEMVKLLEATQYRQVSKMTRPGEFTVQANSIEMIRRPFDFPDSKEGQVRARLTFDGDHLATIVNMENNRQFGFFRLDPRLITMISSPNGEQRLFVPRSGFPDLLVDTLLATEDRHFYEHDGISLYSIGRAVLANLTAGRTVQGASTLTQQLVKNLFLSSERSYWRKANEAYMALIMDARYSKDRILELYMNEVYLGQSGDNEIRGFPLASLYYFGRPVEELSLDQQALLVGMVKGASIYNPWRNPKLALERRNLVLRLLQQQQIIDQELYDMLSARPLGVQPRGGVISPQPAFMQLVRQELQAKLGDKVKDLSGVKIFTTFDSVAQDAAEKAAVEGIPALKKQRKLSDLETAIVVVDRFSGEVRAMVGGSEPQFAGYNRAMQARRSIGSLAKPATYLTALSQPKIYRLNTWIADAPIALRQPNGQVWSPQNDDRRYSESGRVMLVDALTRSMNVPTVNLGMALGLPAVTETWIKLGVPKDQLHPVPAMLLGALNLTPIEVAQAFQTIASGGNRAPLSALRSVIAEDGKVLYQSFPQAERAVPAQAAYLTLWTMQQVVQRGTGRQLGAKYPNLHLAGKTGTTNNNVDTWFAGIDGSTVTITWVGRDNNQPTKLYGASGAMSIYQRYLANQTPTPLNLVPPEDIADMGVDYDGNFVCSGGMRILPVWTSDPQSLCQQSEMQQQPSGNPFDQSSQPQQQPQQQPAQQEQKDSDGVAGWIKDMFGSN
Measured IC50, listed per entry for reference.
Number only, in µM; omit the unit.

{"columns": ["compound", "endpoint-unit", "IC50"],
 "data": [
  ["C[C@@H](O)[C@H]1C(=O)N2C(C(=O)O)=C(S[C@@H]3CN[C@H](C(=O)N(C)C)C3)[C@H](C)[C@H]12 [meropenem]", "µM", 110]
]}

Okay, now this compound:
Observed IC50 on PBP1b (Escherichia coli), entry CO/N=C(\C(=O)N[C@@H]1C(=O)N2C(C(=O)[O-])=C(C[N+]3(C)CCCC3)CS[C@H]12)c1csc(N)n1 [cefepime] , equals 2.6

----------
# study-system: PBP2 (Escherichia coli, UniProt P0AD65)
pIC50: −log10 of the molar value.
Please note: Condition met applies when pIC50 is 6 or greater, and Condition not met applies otherwise.

{"columns": ["compound", "study-system", "group"],
 "data": [
  ["N[C@@H](C(=O)N[C@@H]1C(=O)N2C(C(=O)O)=C(Cl)CS[C@H]12)c1ccccc1", "PBP2 (Escherichia coli, UniProt P0AD65)", "Condition not met"],
  ["C[C@H]1[C@H](NC(=O)/C(=N\\OC(C)(C)C(=O)O)c2csc(N)n2)C(=O)N1S(=O)(=O)O", "PBP2 (Escherichia coli, UniProt P0AD65)", "Condition not met"],
  ["C[C@@H](O)[C@H]1C(=O)N2C(C(=O)O)=C(S[C@@H]3CN[C@H](C(=O)N(C)C)C3)[C@H](C)[C@H]12", "PBP2 (Escherichia coli, UniProt P0AD65)", "Condition met"],
  ["CCN1CCN(C(=O)N[C@@H](C(=O)N[C@@H]2C(=O)N3[C@@H]2SC(C)(C)[C@@H]3C(=O)O)c2ccccc2)C(=O)C1=O", "PBP2 (Escherichia coli, UniProt P0AD65)", "Condition not met"],
  ["CO/N=C(\\C(=O)N[C@@H]1C(=O)N2C(C(=O)[O-])=C(C[N+]3(C)CCCC3)CS[C@H]12)c1csc(N)n1 [cefepime]", "PBP2 (Escherichia coli, UniProt P0AD65)", "Condition met"]
]}

Input: Quick check: does `CC1(C)S[C@@H]2[C@H](NC(=O)Cc3ccccc3)C(=O)N2[C@H]1C(=O)O` have pIC50 greater than or equal to 6?
Output: Condition not met

Input: Threshold query (pIC50 >= 6) on `CO/N=C(\C(=O)N[C@@H]1C(=O)N2C(C(=O)O)=C(COC(N)=O)CS[C@H]12)c1ccco1`
Output: Condition not met

Input: Can `C[C@@H](O)[C@H]1C(=O)N2C(C(=O)O)=C([C@H]3CCCO3)S[C@H]12` be said to have pIC50 at or above 6?
Output: Condition met
